Every entry's value here was drawn from the supplement of paper PMC9233669.

- Test system: biotinyl-Phe-oxazolone
- Method: self-aminoacylation, catalytic enhancement (BFO) (fold over background); higher = more active; k-Seq, kA / k0A0; sequences stand for … in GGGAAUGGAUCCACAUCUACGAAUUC…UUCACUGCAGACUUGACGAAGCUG
This sample holds only a part of the variants without activity.
Short version: self-aminoacylation at least 2 is t, less is f.

Polymer Sequence	Target Desc	Assigned Class
AAGUUUUCUAAUAGUCUCAAG [Fam3.1 aminoacylation ribozyme variant]	biotinyl-Phe-oxazolone	t
AUUCCCCUAGGUCAUGGGGUG [Fam2.2 aminoacylation ribozyme variant]	biotinyl-Phe-oxazolone	t
AAGUUUGCUAAUAGUCGUCAG [Fam3.1 aminoacylation ribozyme variant]	biotinyl-Phe-oxazolone	t
AUUAACCUGGUCAUCGAGUGA [Fam2.1 aminoacylation ribozyme variant]	biotinyl-Phe-oxazolone	t
CCACACUUCAAGCGAUCGGAC [Fam1B.1 aminoacylation ribozyme variant]	biotinyl-Phe-oxazolone	f
AUUGCCCUGGUCAUCGAGUGC [Fam2.1 aminoacylation ribozyme variant]	biotinyl-Phe-oxazolone	t
AAGUUUUCGAAUAGUCGCAAG [Fam3.1 aminoacylation ribozyme variant]	biotinyl-Phe-oxazolone	t
AAGUUUGAUAAUAGCCGCAAG [Fam3.1 aminoacylation ribozyme variant]	biotinyl-Phe-oxazolone	f
CGACUGCAAACAAUCGGUCUG [Fam1A.1 aminoacylation ribozyme variant]	biotinyl-Phe-oxazolone	t
